# mortality at 1 mg/m2 values compiled below
# System: German cockroach (female adults)
# method summary: Test 3 (Effect on German Cockroach)
# Format: in vivo, Blatella germanica (German cockroach)
# experimental context: Blattella germanica; 1 mg/m^2; 48 hours; female adults; read-out: Mortality (%)

compound	mortality at 1 mg/m2 / %
CC(C)(CCCc1cccc(Oc2ccccc2)c1)c1ccc(OC(F)(F)C(F)F)cc1	30
CCOc1ccc(C(C)(C)CCCc2cccc(Oc3ccccc3)c2)cc1	100
COc1ccc(C(C)(C)CCCc2ccc(F)c(Oc3ccccc3)c2)cc1	100
Cc1ccc(C(C)(C)CCCc2ccc(F)c(Oc3ccccc3)c2)cc1	100
CCOP(=S)(OCC)Oc1ccc(=O)n(-c2ccccc2)n1 [(b), reference compound]	0
CCc1ccc(C(C)(C)CCCc2ccc(F)c(Oc3ccccc3)c2)cc1	70
CC(C)c1ccc(C(C)(C)CCCc2ccc(F)c(Oc3ccccc3)c2)cc1	40
CC(C)(CCCc1cccc(Oc2ccccc2)c1)c1ccc2c(c1)OCO2	40
CCOc1ccc(C(C)(C)CCCc2ccc(F)c(Oc3ccccc3)c2)cc1Cl	100

* * *

# Test system: yearling carps
# method summary: Test 5 (Fish Toxicity)
# Assay type: in vivo, carp
# experimental context: 0.1 ppm in water
Where a name gives a salt, the structure may show the parent alone.
Mortality(%) 48 Hours After values, listed per item

compound	target system	Mortality(%) 48 Hours After
CC(C)(CCCc1cccc(Oc2ccccc2)c1)c1ccc(Cl)cc1	yearling carps	0
CC(C)(CCCc1cccc(Oc2ccccc2)c1)c1cccc(Cl)c1	yearling carps	0
CC(C)C(C(=O)OC(C#N)c1cccc(Oc2ccccc2)c1)c1ccc(Cl)cc1 (centres unmarked) [(g), Fenvalerate, reference compound]	yearling carps	100
CC(C)(CCCc1cccc(Oc2ccccc2)c1)c1ccc2c(c1)OCO2	yearling carps	0
CC(C)(CCCc1cccc(Oc2ccccc2)c1)c1ccc(OC(F)(F)CCl)cc1	yearling carps	0
CCC(CCCc1cccc(Oc2ccccc2)c1)c1ccc(Cl)cc1 (centres unmarked)	yearling carps	0
CC(C)(CCCc1ccc(F)c(Oc2ccccc2)c1)c1ccc(OC(F)F)cc1	yearling carps	5
CCOc1ccc(C(C)(C)CCCc2ccc(F)c(Oc3ccc(F)cc3)c2)cc1	yearling carps	0
CCOc1ccc(C(C)(C)CCCc2ccc(F)c(Oc3ccccc3)c2)cc1Cl	yearling carps	0
CCCOc1ccc(C(C)(C)CCCc2cccc(Oc3ccccc3)c2)cc1	yearling carps	0
CC(C)(CCCc1cccc(Oc2ccccc2)c1)c1ccccc1	yearling carps	0
Oc1c(Cl)c(Cl)c(Cl)c(Cl)c1Cl [(f), PCP sodium salt, reference compound]	yearling carps	55
CC(C)(CCCc1ccc(F)c(Oc2ccccc2)c1)c1ccc(Cl)cc1	yearling carps	0
COc1ccc(C(C)(C)CCCc2cccc(Oc3ccccc3)c2)cc1	yearling carps	0
CC(C)(CCCc1cccc(Oc2ccccc2)c1)c1ccc2ccccc2c1	yearling carps	0
CC(C)(CCCc1cccc(Oc2ccccc2)c1)c1ccc(Cl)c(Cl)c1	yearling carps	0
CCOc1ccc(C(C)(C)CCCc2cccc(Oc3ccccc3)c2)cc1	yearling carps	0

* * *

# Test system: German cockroach (female adults)
# method summary: Test 3 (Effect on German Cockroach)
# Type: in vivo, Blatella germanica (German cockroach)
# experimental context: Blattella germanica; 1 mg/m^2; 48 hours; female adults; read-out: Mortality (%)

molecule	mortality at 1 mg/m2 (%)
Cc1ccc(C(C)(C)CCCc2cccc(Oc3ccccc3)c2)cc1 [Compound 1]	80
CC(C)(CCCc1ccc(F)c(Oc2ccc(F)cc2)c1)c1ccc(Cl)cc1 [Compound 53]	80
CCOc1ccc(C2(CCCc3cccc(Oc4ccccc4)c3)CCC2)cc1 [Compound 31]	100
CC(C)(CCCc1ccc(F)c(Oc2ccccc2)c1)c1ccc(OC(F)(F)C(F)F)cc1 [Compound 66]	65
CC(C)(CCCc1ccc(F)c(Oc2ccccc2)c1)c1ccc(OC(F)F)cc1 [Compound 10]	100
CC(C)(CCCc1ccc(F)c(Oc2ccccc2)c1)c1ccc(Cl)cc1 [Compound 20]	100

The reported measurements were obtained from patent US4814340A.
